Recorded pIC50 by entry
measured target: Tet(X7) (human gut metagenome)
Sequence (Z9HWK3IZF4 21-399 limits assumed): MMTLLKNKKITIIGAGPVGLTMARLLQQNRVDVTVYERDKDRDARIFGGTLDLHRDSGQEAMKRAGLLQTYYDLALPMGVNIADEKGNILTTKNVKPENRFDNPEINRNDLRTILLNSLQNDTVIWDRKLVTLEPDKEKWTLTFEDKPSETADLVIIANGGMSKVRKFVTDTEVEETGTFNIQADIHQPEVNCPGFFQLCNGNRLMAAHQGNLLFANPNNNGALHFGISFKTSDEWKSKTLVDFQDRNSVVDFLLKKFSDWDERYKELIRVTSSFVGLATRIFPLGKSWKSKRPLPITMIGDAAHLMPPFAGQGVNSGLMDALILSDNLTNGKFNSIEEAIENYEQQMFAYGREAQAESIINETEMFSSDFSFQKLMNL
test: absorbance, initial velocity of tigecycline degradation
test conditions: read-out: IC50 (apparent)
Here pIC50 is given on a logarithmic scale as minus log10 of the concentration in mol/L.

{"columns": ["compound", "pIC50"],
 "data": [
  ["Cc1c2c(c(O)c3c(O)cccc13)C(=O)[C@]1(O)C(=O)C(C(N)=O)=C(O)[C@@H](N(C)C)[C@@H]1C2 [anhydrotetracycline]", 5.97]
]}

Next, consider the following compound.
Task item: Give pIC50 for CN(C)[C@@H]1C(=O)C(C(N)=O)=C(O)[C@@]2(O)C(=O)c3c(cc4c(Cl)ccc(O)c4c3O)C[C@@H]12 [anhydrodemeclocycline]
Reply: 6.59
